# Tested on: HCT-116
# TEST_SUMMARY: Antitumor activity against human HCT-116 cells incubated for 48 hrs
# Type: functional
Below: a set of entries, each annotated with reported GI50.

| SMILES_CODE | SYSTEM_NAME | GI50 |
| --- | --- | --- |
| [2H]c1c(Oc2cc3c(cc2NC(=O)c2cc(OC)c(OC)c(OC)c2Cl)NC(=O)[C@H](CC(=O)N(CC)CC)NC3=O)c([2H])c(C([2H])([2H])[2H])c([2H])c1C([2H])([2H])[2H] | HCT-116 | < 5 nM |
| [2H]C([2H])([2H])Oc1cc(C(=O)Nc2cc3c(cc2Oc2cc(C)cc(C)c2)C(=O)N[C@@H](CC(=O)N(C)OC)C(=O)N3)c(Br)c(OC([2H])([2H])[2H])c1OC([2H])([2H])[2H] | HCT-116 | 7.8 nM |
| [2H]c1c(C)c([2H])c(Oc2cc3c(cc2NC(=O)c2cc(OC)c(OC)c(OC)c2Cl)NC(=O)[C@H](CC(=O)N(CC)CC)NC3=O)c([2H])c1C | HCT-116 | 124 nM |
| [2H]C([2H])([2H])Oc1cc(C(=O)Nc2cc3c(cc2Oc2cc(C)cc(C)c2)C(=O)N(C)[C@@H](CC(=O)N(C)C)C(=O)N3)c(Br)c(OC([2H])([2H])[2H])c1OC([2H])([2H])[2H] | HCT-116 | < 5 nM |
| [2H]C([2H])([2H])c1cc(Oc2cc3c(cc2NC(=O)c2cc(OC)c(OC)c(OC)c2Cl)NC(=O)[C@H](CC(=O)N(CC)CC)NC3=O)cc(C([2H])([2H])[2H])c1 | HCT-116 | < 5 nM |
| [2H]C([2H])([2H])Oc1cc(C(=O)Nc2cc3c(cc2Oc2cc(C)cc(C)c2)C(=O)N[C@@H](CC(=O)N(CC)CC)C(=O)N3)c(Cl)c(OC([2H])([2H])[2H])c1OC([2H])([2H])[2H] | HCT-116 | 5.4 nM |
| [2H]C([2H])([2H])N1C(=O)c2cc(Oc3cc(C)cc(C)c3)c(NC(=O)c3cc(OC)c(OC)c(OC)c3Br)cc2NC(=O)[C@@H]1CC(=O)N(CC)CC | HCT-116 | < 5 nM |
| [2H]C([2H])([2H])Oc1cc(C(=O)Nc2cc3c(cc2Oc2cc(C)cc(C)c2)C(=O)N[C@@H](CC(=O)N(C)C)C(=O)N3)c(Br)c(OC([2H])([2H])[2H])c1OC([2H])([2H])[2H] | HCT-116 | < 5 nM |
| [2H]C([2H])([2H])Oc1cc(C(=O)Nc2cc3c(cc2Oc2cc(C)cc(C)c2)C(=O)N[C@@H](CC(=O)N(CC)CC)C(=O)N3)c(Br)c(OC([2H])([2H])[2H])c1OC([2H])([2H])[2H] | HCT-116 | < 5 nM |
| [2H]C([2H])([2H])Oc1cc(C(=O)Nc2cc3c(cc2Oc2cc(C)cc(C)c2)C(=O)N[C@@H](CC(=O)N(OC([2H])([2H])[2H])C([2H])([2H])[2H])C(=O)N3)c(Br)c(OC([2H])([2H])[2H])c1OC([2H])([2H])[2H] | HCT-116 | < 5 nM |
